Tested on: Nucleic Acid
experimentalDetails: Inhibition of TAT/TAR RNA interaction in HIV1
Assay type: nucleic-acid assay, Human immunodeficiency virus 1
assayEndpoint: pIC50
In plain terms, pIC50 is the concentration in mol/L turned into minus its base-10 logarithm.

Tested on Nucleic Acid, the item `CCOc1cccc(CN(c2cccc(F)c2)C2CCNCC2)c1` showed pIC50 equal to 3.30

====

I'd be grateful if you could share measured pIC50 for these entries.
targetOfAssay: Glutamate [NMDA] receptor
experimentalDetails: Inhibition of NMDA receptor glycine binding site (unknown origin)
Set-up: species or system Homo sapiens
In plain terms, pIC50 is the concentration in mol/L turned into minus its base-10 logarithm.

In plain terms, `NCCCC(=O)NCC(=O)O` has a documented pIC50 of 4.21

In plain terms, `C[C@@H](NCCN)C(=O)O` has a documented pIC50 of 3.95

In plain terms, `CCNCCC(=O)NCCC(=O)O` has a documented pIC50 of 4.22

In plain terms, `C[C@H](N)CC(=O)NCC(=O)O` has a documented pIC50 of 4.55

In plain terms, `NC[C@@H]1NC(=O)CNC1=O` has a documented pIC50 of 3.43
